Each record here notes measured IC50.
Molecular target: Brd4 bromodomain 1 (BRD4(1)) (Homo sapiens, UniProt O60885)
Experiment: Inhibition of tetra-acetylated histone H4 binding to Brd4 bromodomain 1 (TR-FRET)
Details: tetra-acetylated histone H4 peptide, first bromodomain of Brd4

Cc1noc(C)c1-c1cnc2nc(C)n(Cc3cccnc3)c2c1 [compound 68] : ≤ 300 nM
Cc1noc(C)c1-c1cc(N)c2c(c1)ncn2Cc1ccccc1 [Example Compound 8] : ≤ 300 nM
Cc1noc(C)c1-c1cnc2nc(NCC3CCCCC3)n(Cc3ccccc3)c2c1 [compound 225] : ≤ 300 nM
Cc1noc(C)c1-c1cc(Br)c2nc(C)n(CCCc3ccccc3)c2c1 [compound 187] : 300 to 3000 nM
Cc1noc(C)c1-c1cnc2c(N)cn(Cc3ccccc3)c2c1 [compound 100] : ≤ 300 nM
Cn1nccc1-c1cc(N)c2c(c1)n(Cc1ccccc1)c(=O)n2C [compound 199] : ≤ 300 nM

In: Could you please provide reported IC50 for Cc1noc(C)c1-c1cnc2ncn(Cc3ccc(Cl)cc3)c2c1 [Example Compound 43] ? Thanks!
Out: ≤ 300 nM

In: Could you please provide reported IC50 for Cc1noc(C)c1-c1cc(N)c2nc(C)n(CC3CCCC3)c2c1 [compound 133] ? Thanks!
Out: ≤ 300 nM

In: Could you please provide reported IC50 for CCNc1nc2c(N)cc(-c3c(C)noc3C)cc2n1C(C)c1ccccc1 (stereo not drawn) [compound 134] ? Thanks!
Out: ≤ 300 nM

In: Could you please provide reported IC50 for CCNc1nc2c([N+](=O)[O-])cc(-c3c(C)noc3C)cc2n1Cc1ccccc1 [Example Compound 18] ? Thanks!
Out: ≤ 300 nM

In: Could you please provide reported IC50 for Cc1noc(C)c1-c1cnc2ncn(Cc3ccc(C(F)(F)F)cc3)c2c1 [Example Compound 41] ? Thanks!
Out: ≤ 300 nM

In: Could you please provide reported IC50 for Cc1noc(C)c1-c1cc([N+](=O)[O-])c2nc(NCc3ccccc3)n(Cc3ccccc3)c2c1 [compound 147] ? Thanks!
Out: ≤ 300 nM

In: Could you please provide reported IC50 for Cc1noc(C)c1-c1cc(N)c2nc(C)n([C@@H](C)c3ccccc3)c2c1 [compound 143] ? Thanks!
Out: ≤ 300 nM
